FYI, the data here is from patent US20240174622A1.

- Test system: LNCaP tumor-transplanted mouse
- Experiment Description: Internal radioactivity distribution using LNCaP tumor-transplanted mouse
- Type: in vivo
- Protocol Conditions: 48 h after administration
Recorded Endpoint: LNCaP Tumor (% ID/g)
A number alone suffices; assume % ID/g.

Find the recorded LNCaP Tumor belonging to O=C([O-])CN1CCN(C(CCC(=O)NCCCC[C@H](NC(=O)N[C@@H](CCC(=O)O)C(=O)O)C(=O)O)C(=O)[O-])CCN(CC(=O)[O-])CCN(C(CCC(=O)N[C@@H](CCCCNC(=O)CCCc2ccc(I)cc2)C(=O)O)C(=O)[O-])CC1.[111In+3] (stereo partly drawn) [[^111In]In-PSMA-DA1] and report it.
8.82

Record: O=C([O-])CN(Cc1cccc(C(=O)[O-])n1)C[C@H](Cc1ccc(NC(=O)[C@H](CCCCNC(=O)CCC(=O)NCCCC[C@H](NC(=O)N[C@@H](CCC(=O)O)C(=O)O)C(=O)O)NC(=O)CCCc2ccc(I)cc2)cc1)N(CC(=O)[O-])Cc1cccc(C(=O)[O-])n1.[111In+3] [[^111In]In-Octapa-2]
8.10

Record: O=C([O-])CN(Cc1cccc(C(=O)[O-])n1)C[C@H](Cc1ccc(NC(=O)CCCCCNC(=O)CCC(=O)NCCCC[C@H](NC(=O)N[C@@H](CCC(=O)O)C(=O)O)C(=O)O)cc1)N(CC(=O)[O-])Cc1cccc(C(=O)[O-])n1.[111In+3] [[^111In]In-Octapa-1, reference compound]
0.58

Record: O=C([O-])CN(CCN(CCc1ccc(NC(=O)CCCCCNC(=O)CCC(=O)NCCCC[C@H](NC(=O)N[C@@H](CCC(=O)O)C(=O)O)C(=O)O)cc1)CCN(CC(=O)[O-])Cc1cccc(C(=O)[O-])n1)Cc1cccc(C(=O)[O-])n1.[111In+3] [[^111In]In-Neunpa-1, reference compound]
0.30

Record: O=C(O)CC[C@H](NC(=O)N[C@@H](CCCCNC(=O)[C@H](Cc1ccc2ccccc2c1)NC(=O)[C@H]1CC[C@H](CNC(=O)CCC(C(=O)O)N2CCN(CC(=O)O)CCN(C(CCC(=O)N[C@@H](CCCCNC(=O)CCCc3ccc(I)cc3)C(=O)O)C(=O)O)CCN(CC(=O)O)CC2)CC1)C(=O)O)C(=O)O (stereo partly drawn) [[^111In]In-PSMA-NAT-DA1, metal not drawn]
131.6

Record: O=C([O-])CN(Cc1cccc(C(=O)[O-])n1)C[C@H](Cc1ccc(NC(=O)[C@H](CCCCNC(=O)CCC(=O)NCCCC[C@H](NC(=O)N[C@@H](CCC(=O)O)C(=O)O)C(=O)O)NC(=O)COCCOCCOCC(=O)N[C@@H](CCCCNC(=O)CCCc2ccc(I)cc2)C(=O)O)cc1)N(CC(=O)[O-])Cc1cccc(C(=O)[O-])n1.[111In+3] [[^111In]In-Octapa-3]
7.79
